# test summary: yeast display, Sf9 membrane polyspecificity reagent, FACS + sequencing; frameworks hold sequencing errors
measured metric: polyreactivity (PSR sort gate)

chain	polyreactivity (PSR sort gate)
QVQLVESGGGLVQAGGSLRLSCAASGRTFYDYAMGWYRQAPGKERELVAGIRWSGGSTYYADSVKGRFTISRDNAKNTVYLQMISLKPEDTAVYYCAADWFAGVAADVEYDYWGQGTQVTVSS	low polyreactivity
QVQLVESGGGLVQAGGSLRLSCAASGLTFTYYAMGWYRQAPGKERELVAVISRRGGSTYYADSVKGRFTISRDNAKNTVYLQMNSLKPEDTAVYYCAATNLQSAYDYWGHGTQVTVSS	high polyreactivity
QVQLVESGGGLVQAGGSLRLSCAASGRIFALYAMGWYRQAPGKERELVATITRSGTNTYYADSVKGRFTISRDNAKNTVYLQMNRLKPEDTAVYYCAAYRFWQRTMGYWGQGTQVTVSS	high polyreactivity
QVQLVESGGGLVQAGGSLRLSCAASGSTFVYNAMGWYRPAPGKERELVAAISARTGRTYYADSVKGRFTISRDNAKNTVYLQMNSLKPEDTAVYYCAAGLIVGRFLRYDYWGQGTQVTVSS	high polyreactivity
QVQLVESGGGLVQAGGSLRLSCAASGRNFVTNAMGWYRQAPGKERELVAAITRGGNTNYADSVKGRFTISRDNAKNTVYLQMNSLKPEDSAVYYCAADTSYYYVYGYFPGYYYWGQGTQVTVSS	low polyreactivity

Ask | Entry QVQLVESGGGLVQAGGSLRLSCAASGFNFRRNAMGWYRQAPGKERELVAVITSSARTNYADSVKGRFTISRDNAKNTVYLQMNSLNPEDTAVYSCNAYRYRQSSSDKYGYWGQGTQVTVSS has what polyreactivity (PSR sort gate)?
Reply | high polyreactivity

Ask | Would you mind doing QVQLVESGGGLVQAGGSLRLSCAASGSIFFQNAMGWYRQAPGKERELVATITSSVGSTYYADSVKGRFTISRDNAKNTVYFQMNSLKPEDTAVYYCNVRFFSAALWYTYFGYDYWGQGTQVTVSS as well?
Reply | low polyreactivity

Ask | Would you mind doing QVQLVESGGGVFQAGGSLRLSCAASGSIYAFNPMGWYRQAPGKETEFVASIRSSTGRTYYADSVKGRFTISRDNAKNTVYLQMNSLKPEDTAVYYCAADSPEKPPRRWYITWPDGYWGQGTQVTVSS as well?
Reply | low polyreactivity

Ask | Would you mind doing QVQLVESGGGLVQAGGSLRLSCAASGFTFSRNAMGWYRQAPGKERELVAAIDSGGSTDYADSVKGRFTISRDNAKNTVYLQMNSLKPEDSAVYYCAKASSATRYVQLRQDYDYWGQGTQVTVSS as well?
Reply | low polyreactivity

Ask | Would you mind doing QVQLVESGGGLVQAGGSLRLSCAASGSTLYKYAMGWYRQAPGKERELVAAISWSGSSTYYADSVKGRFTISRDNAKNTVYLQMNSLKPEDTAVYYCAAYPRPYIGYTDGYVWYEFDYWGQGTQVTVSS as well?
Reply | low polyreactivity

---

# test summary: yeast display, Sf9 membrane polyspecificity reagent, FACS + sequencing; frameworks hold sequencing errors

chain	polyreactivity (PSR sort gate)
QVQLVESGGGLVQAGGSLRLSCAASGRIFSFYVMGWYRQEPGKERELVAAIDNGGGSTYYADSVKGRFTISRDNAKNTVYLQMNSLKPEDTAVYYCAAEVYDSDSEYYYWGQGTQVTVSS	low polyreactivity
QVQLVESGGGLVQAGGSLRLSCAASGSIFVHNAMGWYRQAPGKERELVAAITWSGGSTYYADSVKGRFTISRDNAKNTVYLQMNSLKPEDTAVYYCNATYSVRYYLEFLNEPEMDYWGQGTQVTVSS	low polyreactivity
QVQLVESGGGLVQAGGSLRLSCAASGFIFKYNVMGWYRQAPGKERELVAAIRGSGRTYYADSVKGRFTISRDNAKNTVYLQMNSLKPEDTAVYYCGADIQAYASRVYAGFDYWGQGTQVTVSS	low polyreactivity
